molecular target: Tyrosine-protein kinase Blk (Homo sapiens); conditions: at 10 µM
I'd appreciate it if you marked entries true when residual activity is lower than 80% and false when it is not.

structure as smiles	category label
O=c1c2ccccc2[nH]c(=S)n1CCN1CCC(=C(c2ccc(F)cc2)c2ccc(F)cc2)CC1	true
O=Nc1c(-c2c(O)[nH]c3ccccc23)[nH]c2ccccc12	true
CC(C)n1cnc2c(NCc3ccccc3)nc(NCCCO)nc21	true
COc1cc2ncnc(Nc3ccc(Oc4ccccc4)cc3)c2cc1OC	true
CC(=O)O/N=C1\C(=C2\C(=O)Nc3cc(Br)ccc32)Nc2ccccc21	true
CCN(CC)CCCCN1c2ccccc2Oc2ccc(Cl)cc21	false
Nc1nc(Nc2ccc(S(N)(=O)=O)cc2)nn1C(=S)Nc1c(F)cccc1F	true
c1ccc(-c2n[nH]cc2-c2ccnc3ccccc23)nc1	true
Ic1cccc(CSc2nnc(-c3ccncc3)o2)c1	true
O=c1cc(-c2cccc3c2Sc2ccccc2S3)oc(N2CCOCC2)c1	true
C[C@@H](N)[C@H]1CC[C@H](C(=O)Nc2ccncc2)CC1	false
CNc1cc2c(Nc3cccc(Br)c3)ncnc2cn1	true
Nc1ccc2ncnc(NCCc3ccc(Oc4ccccc4)cc3)c2c1	true
Cc1cc(Nc2nc(-c3ccccc3)nc3ccccc23)n[nH]1	true
O=C1NC(=O)/C(=C/c2ccc3c(c2)OC(F)(F)O3)S1	false
COc1cc2ncnc(Nc3ccc(NC(=O)c4ccccc4)cc3)c2cc1OC	true
Cn1nc2c3c(cccc31)C(=O)c1ccccc1-2	false
CN(C)c1ccc(/C=C2\C(=O)Nc3ccccc32)cc1	true
CC[n+]1c(/C=C/N(C)c2ccccc2)n(-c2ccccc2)c2ccc(-c3nc4ccccc4s3)cc21	true
CO[C@@H]1[C@H](N(C)C(=O)c2ccccc2)C[C@H]2O[C@]1(C)n1c3ccccc3c3c4c(c5c6ccccc6n2c5c31)C(=O)NC4	true

----------
molecular target: Serine/threonine-protein kinase ULK3 (Homo sapiens) (UniProt Q6PHR2); conditions: at 10 µM
Sequence (Q6PHR2 whole entry): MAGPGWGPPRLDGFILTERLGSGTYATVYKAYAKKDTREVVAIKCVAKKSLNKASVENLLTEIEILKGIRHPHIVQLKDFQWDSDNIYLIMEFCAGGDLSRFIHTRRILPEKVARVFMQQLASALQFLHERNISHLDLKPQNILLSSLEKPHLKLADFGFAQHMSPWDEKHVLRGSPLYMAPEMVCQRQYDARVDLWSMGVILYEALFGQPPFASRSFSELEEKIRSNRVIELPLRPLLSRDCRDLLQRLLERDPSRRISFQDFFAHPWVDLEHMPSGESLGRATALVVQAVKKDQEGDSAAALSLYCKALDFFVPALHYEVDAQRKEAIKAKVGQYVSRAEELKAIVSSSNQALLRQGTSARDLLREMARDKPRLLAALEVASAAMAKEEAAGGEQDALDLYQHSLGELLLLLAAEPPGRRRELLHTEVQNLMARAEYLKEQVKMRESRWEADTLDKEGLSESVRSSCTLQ
Measured residual activity, listed per entry for reference.
reported endpoint: residual activity (%)

structure as smiles	reading
CC(=O)O/N=C1\C(=C2\C(=O)Nc3cc(Br)ccc32)Nc2ccccc21	66
COc1ccc(CNc2nc(N(CCO)CCO)nc3c2ncn3C(C)C)cc1	82
O=C(Nc1cccc(Nc2cc(Nc3cccc(C(F)(F)F)c3)ncn2)c1)C1CC1	94
O=Nc1c(-c2c(O)[nH]c3ccccc23)[nH]c2ccccc12	12
Cc1cc2ncc(-c3ccccc3)nc2cc1C	96
CCC(=O)Nc1ccc2ncnc(Nc3cccc(Br)c3)c2c1	89
NC(=O)c1ccc2[nH]c(-c3ccc(Oc4ccc(Cl)cc4)cc3)nc2c1	87
CC[n+]1c(/C=C/N(C)c2ccccc2)n(-c2ccccc2)c2ccc(-c3nc4ccccc4s3)cc21	97
COc1cc2ncnc(Nc3ccc(Oc4ccccc4)cc3)c2cc1OC	79
O=C1NC(=O)c2c1c1c3ccccc3[nH]c1c1[nH]c3cc(Br)ccc3c21	86
c1ccc(-c2n[nH]cc2-c2ccnc3ccccc23)nc1	98

----------
target: Receptor tyrosine-protein kinase erbB-4 (Homo sapiens) (UniProt Q15303); details: at 1 µM
Sequence (Q15303 whole entry): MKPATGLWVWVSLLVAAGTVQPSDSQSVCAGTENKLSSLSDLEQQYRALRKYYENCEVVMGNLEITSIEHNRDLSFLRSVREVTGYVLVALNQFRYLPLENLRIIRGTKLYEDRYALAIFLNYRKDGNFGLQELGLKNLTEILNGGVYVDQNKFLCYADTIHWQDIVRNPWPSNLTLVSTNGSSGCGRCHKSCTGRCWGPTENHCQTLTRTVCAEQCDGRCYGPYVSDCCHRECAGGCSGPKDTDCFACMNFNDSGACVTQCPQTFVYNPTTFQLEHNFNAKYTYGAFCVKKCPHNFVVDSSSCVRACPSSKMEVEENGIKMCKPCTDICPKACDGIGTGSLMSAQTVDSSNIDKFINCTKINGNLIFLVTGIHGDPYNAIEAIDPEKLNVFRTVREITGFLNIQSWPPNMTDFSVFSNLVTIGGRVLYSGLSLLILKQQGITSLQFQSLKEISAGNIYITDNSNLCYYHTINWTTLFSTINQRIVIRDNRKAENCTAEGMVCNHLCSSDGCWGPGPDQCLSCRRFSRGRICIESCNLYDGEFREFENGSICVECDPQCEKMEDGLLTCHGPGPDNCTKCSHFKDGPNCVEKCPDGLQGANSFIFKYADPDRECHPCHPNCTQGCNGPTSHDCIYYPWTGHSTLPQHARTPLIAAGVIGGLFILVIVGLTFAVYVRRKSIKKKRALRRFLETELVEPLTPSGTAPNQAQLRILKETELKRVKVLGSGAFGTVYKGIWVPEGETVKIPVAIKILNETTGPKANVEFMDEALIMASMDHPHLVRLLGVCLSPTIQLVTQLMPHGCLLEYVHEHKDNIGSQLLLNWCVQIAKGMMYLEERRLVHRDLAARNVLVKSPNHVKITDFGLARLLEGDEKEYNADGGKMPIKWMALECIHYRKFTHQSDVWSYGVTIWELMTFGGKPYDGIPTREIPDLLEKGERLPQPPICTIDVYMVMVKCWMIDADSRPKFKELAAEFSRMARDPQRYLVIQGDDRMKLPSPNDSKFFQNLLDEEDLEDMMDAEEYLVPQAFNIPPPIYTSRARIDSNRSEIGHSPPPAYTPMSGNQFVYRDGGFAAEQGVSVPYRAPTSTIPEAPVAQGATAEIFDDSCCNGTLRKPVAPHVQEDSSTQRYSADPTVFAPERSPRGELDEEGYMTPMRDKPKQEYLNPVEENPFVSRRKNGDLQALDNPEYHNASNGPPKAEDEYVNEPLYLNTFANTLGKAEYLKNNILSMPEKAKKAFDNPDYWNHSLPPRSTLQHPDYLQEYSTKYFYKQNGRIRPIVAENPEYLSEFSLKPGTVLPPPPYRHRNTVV

structure as smiles	tested on	units text	residual activity
O=[N+]([O-])c1ccc(-c2nc(-c3ccc(F)cc3)c(-c3ccncc3)[nH]2)cc1	Receptor tyrosine-protein kinase erbB-4 (Homo sapiens) (UniProt Q15303)	%	76
COc1cc2ncnc(N3CCN(C(=O)Nc4ccc(Oc5ccccc5)cc4)CC3)c2cc1OC	Receptor tyrosine-protein kinase erbB-4 (Homo sapiens) (UniProt Q15303)	%	100
COc1ccc(CNc2nc(N(CCO)CCO)nc3c2ncn3C(C)C)cc1	Receptor tyrosine-protein kinase erbB-4 (Homo sapiens) (UniProt Q15303)	%	91
Cc1ccc(S(=O)(=O)/C=C/C#N)cc1	Receptor tyrosine-protein kinase erbB-4 (Homo sapiens) (UniProt Q15303)	%	95
CO[C@@H]1[C@H](N(C)C(=O)c2ccccc2)C[C@H]2O[C@]1(C)n1c3ccccc3c3c4c(c5c6ccccc6n2c5c31)C(=O)NC4	Receptor tyrosine-protein kinase erbB-4 (Homo sapiens) (UniProt Q15303)	%	67
